System: Fibroblast
Assay: Incucyte cell viability with human fibroblast; further: filed as whole numbers so only -1 and 0 and 1 occur
Assay type: toxicity, cell-based
Details: 18 h, 10 µM, compound concentration 10 uM, replicate number 1, timepoint 18 hours
reported.metric: Growth Rate
Kindly provide the number alone.

Task item: Form: Entry = `Cc1nc(NC(=O)N2CCC[C@H]2C(N)=O)sc1-c1ccnc(C(C)(C)C(F)(F)F)c1` | System = Fibroblast | Growth Rate = ____
Reply: 1

Task item: Query for Fibroblast: what Growth Rate does the record show for COc1cc2ncnc(Nc3ccc(F)c(Cl)c3)c2cc1NC(=O)/C=C/CN1CCCCC1 [DACOMITINIB ANHYDROUS] ?
Reply: 0

Task item: Query the reported Growth Rate for Fibroblast; item: `COCC(=O)NC/C=C/c1ccc2ncnc(Nc3ccc(Oc4ccc(C)nc4)c(C)c3)c2c1`
Reply: 1

Task item: What value of Growth Rate on Fibroblast does `N[C@@H](Cc1cc(I)c(Oc2ccc(O)c(I)c2)c(I)c1)C(=O)O` have?
Reply: 0
